target: mTOR (Homo sapiens, UniProt P42345); construct: FLAG; made in house; experiment: In Vitro mTOR Kinase Assay (Echo), Test (a)(ii); format: biochemical; conditions: table of enzyme assay Test (a)(ii); read-out: Test (a)(ii) IC50
Sequence (P42345 1362-2549): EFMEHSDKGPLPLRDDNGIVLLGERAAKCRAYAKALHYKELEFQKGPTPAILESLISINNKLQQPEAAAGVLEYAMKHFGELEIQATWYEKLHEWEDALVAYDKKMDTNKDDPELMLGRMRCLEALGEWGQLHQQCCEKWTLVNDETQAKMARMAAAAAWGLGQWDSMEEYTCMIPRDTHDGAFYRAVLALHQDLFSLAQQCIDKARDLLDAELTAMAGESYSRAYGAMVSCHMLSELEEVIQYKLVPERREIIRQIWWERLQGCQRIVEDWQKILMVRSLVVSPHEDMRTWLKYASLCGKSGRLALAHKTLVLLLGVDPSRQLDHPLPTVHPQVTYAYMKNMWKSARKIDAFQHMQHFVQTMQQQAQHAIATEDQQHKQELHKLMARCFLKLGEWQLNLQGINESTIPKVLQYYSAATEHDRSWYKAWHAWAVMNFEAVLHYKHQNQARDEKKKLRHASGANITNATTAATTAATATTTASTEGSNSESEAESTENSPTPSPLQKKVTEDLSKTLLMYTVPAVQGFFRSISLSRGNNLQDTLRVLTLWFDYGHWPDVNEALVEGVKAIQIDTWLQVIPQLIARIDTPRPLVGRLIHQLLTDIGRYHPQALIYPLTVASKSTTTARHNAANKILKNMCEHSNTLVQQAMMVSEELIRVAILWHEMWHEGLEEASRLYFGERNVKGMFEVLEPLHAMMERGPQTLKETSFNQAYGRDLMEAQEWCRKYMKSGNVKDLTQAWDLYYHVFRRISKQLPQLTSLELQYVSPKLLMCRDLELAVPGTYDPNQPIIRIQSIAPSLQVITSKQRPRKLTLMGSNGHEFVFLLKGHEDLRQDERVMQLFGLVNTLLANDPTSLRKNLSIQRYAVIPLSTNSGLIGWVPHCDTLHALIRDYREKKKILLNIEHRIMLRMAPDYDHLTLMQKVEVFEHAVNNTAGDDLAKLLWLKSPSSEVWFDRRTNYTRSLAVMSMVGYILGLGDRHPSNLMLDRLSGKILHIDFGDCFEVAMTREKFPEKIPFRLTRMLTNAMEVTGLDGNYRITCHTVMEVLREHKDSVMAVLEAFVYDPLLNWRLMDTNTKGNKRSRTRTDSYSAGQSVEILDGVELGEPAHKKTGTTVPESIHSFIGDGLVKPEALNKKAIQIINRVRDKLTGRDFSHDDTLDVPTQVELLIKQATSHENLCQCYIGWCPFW
EXPERIMENTAL ENDPOINT: IC50

For orientation, consider the following solved cases.
COMPOUND	IC50
Cc1nc(C)c(S(=O)(=O)C2(c3cc(N4CCOC[C@@H]4C)nc(-c4ccc(NC(=O)NC5CC5)cc4)n3)CC2)s1	41.8 nM
C[C@H]1COCCN1c1cc(C2(S(=O)(=O)CCCO)CCCC2)nc(-c2ccc(NC(=O)NCCO)cc2)n1 [Example 43g]	29 nM
C[C@H]1COCCN1c1cc(C2(S(=O)(=O)c3ccccn3)CC2)nc(-c2ccc(NC(=O)NCC(F)F)cc2)n1 [Example 64af]	3.39 nM

Lookup: Which value of IC50 has been reported for `CNC(=O)Nc1ccc(-c2nc(N3CCOC[C@@H]3C)cc(C3(S(=O)(=O)c4cccnc4C(=O)N(C)C)CC3)n2)cc1` in the records?
Found: 10.4 nM

These entries and their values trace back to patent US20090018134A1.
